Source of measurements: patent US20020132758A1

Method Notes: Water solubility of cholesterol at 37° C. determined by HPLC
Assay type: physicochemical
Applied Conditions: thermodynamic from solid; 10 mg C-pure in one liter distilled water, stirred 50° C. 2 h then 37° C. 6 h, HPLC; no C-mod
Parameter Measured: solubility thermodynamic (µg/mL)

compound_structure_string=CC(C)CCC[C@@H](C)[C@H]1CC[C@H]2[C@@H]3CC=C4C[C@@H](O)CC[C@]4(C)[C@H]3CC[C@]12C reported_measurement=4.5
